Test system: MCF-7
Experiment: MTT antiproliferative assay, MCF-7
Format: cell-based, human
Conditions: 48 h, MTT
pIC50: −log10 of the molar value.
Readout kind: pIC50

COc1ccc(-n2cc(/C=C3\CC4C5CC=C6CC(O)CCC6(C)C5CCC4(C)C3=O)nn2)cc1 (stereo not shown) [Compound 2s]    4.16
CC12CCC3C(CC=C4CC(O)CCC43C)C1C/C(=C\c1cn(-c3ccc(Cl)c(Cl)c3)nn1)C2=O (stereo not shown) [Compound 2h]    4.83

###

Test system: BEL7402
Test: MTT antiproliferative assay, BEL7402
Type: cell-based, human
Details: Homo sapiens, Bel-7402; 100 μM, 48 h, MTT; read-out: % Growth Inhibition at 100 μM BEL7402
Protocol: The antiproliferative activity of the title compounds against the panel of six different human cancer cell lines, viz. lung (A549), cervix (HeLa), liver (HepG-2), liver (BEL7402), colorectal (HCT116), and breast (MCF-7) cell lines, was evaluated using a standard MTT-based colorimetric assay. […]
Measured inhibition at 100 µM values are reported for all entries that follow.
Readout kind: inhibition at 100 µM (%)

CC12CCC3C(CC=C4CC(O)CCC43C)C1C/C(=C\c1cn(-c3ccccc3)nn1)C2=O (stereo not shown) [Compound 2a]    12.9
Cc1cccc(-n2cc(/C=C3\CC4C5CC=C6CC(O)CCC6(C)C5CCC4(C)C3=O)nn2)c1 (stereo not shown) [Compound 2o]    30.5
C[C@]12CC[C@H](O)CC1=CC[C@@H]1[C@@H]2CC[C@]2(C)C(=O)CC[C@@H]12 [DHEA, Dehydroepiandrosterone]    46.5
CC12CCC3C(CC=C4CC(O)CCC43C)C1C/C(=C\c1cn(-c3ccc(Cl)cc3)nn1)C2=O (stereo not shown) [Compound 2g]    66.9
CC12CCC3C(CC=C4CC(O)CCC43C)C1C/C(=C\c1cn(-c3ccc(F)cc3)nn1)C2=O (stereo not shown) [Compound 2d]    60.4
Cc1ccc(-n2cc(/C=C3\CC4C5CC=C6CC(O)CCC6(C)C5CCC4(C)C3=O)nn2)cc1 (stereo not shown) [Compound 2p]    23.7

###

List of pIC50 values.
System: A549
Assay: MTT antiproliferative assay, A549
Type: cell-based, human
Conditions: 48 h, MTT
pIC50: −log10 of the molar value.
Readout kind: pIC50

CC12CCC3C(CC=C4CC(O)CCC43C)C1C/C(=C\c1cn(-c3ccc(C(F)(F)F)cc3)nn1)C2=O (stereo not shown)    4.14
CC12CCC3C(CC=C4CC(O)CCC43C)C1C/C(=C\c1cn(-c3ccc(Cl)c(Cl)c3)nn1)C2=O (stereo not shown)    4.76

###

Test system: HepG-2
Assay: MTT antiproliferative assay, HepG-2
Format: cell-based, human
Conditions: Homo sapiens, HepG2; 48 h, MTT
Please note: IC50 exactly at 20 µM is false (0). Only values below 20 µM get true (1).

O=c1[nH]cc(F)c(=O)[nH]1 [Compound 5-FU, 5-fluorouracil, reference compound]    true (1)
CC12CCC3C(CC=C4CC(O)CCC43C)C1C/C(=C\c1cn(-c3ccc(F)cc3)nn1)C2=O (stereo not drawn) [Compound 2d]    false (0)
CC12CCC3C(CC=C4CC(O)CCC43C)C1C/C(=C\c1cn(-c3ccc(Cl)cc3)nn1)C2=O (stereo not drawn) [Compound 2g]    false (0)
Cc1ccc(-n2cc(/C=C3\CC4C5CC=C6CC(O)CCC6(C)C5CCC4(C)C3=O)nn2)cc1 (stereo not drawn) [Compound 2p]    true (1)
CC12CCC3C(CC=C4CC(O)CCC43C)C1C/C(=C\c1cn(-c3ccc(I)cc3)nn1)C2=O (stereo not drawn) [Compound 2n]    true (1)
CC12CCC3C(CC=C4CC(O)CCC43C)C1C/C(=C\c1cn(-c3cccc(F)c3)nn1)C2=O (stereo not drawn) [Compound 2c]    true (1)

###

Tested on: BEL7402
Assay: MTT antiproliferative assay, BEL7402
Assay type: cell-based, human
Details: Homo sapiens, Bel-7402; 100 μM, 48 h, MTT; read-out: % Growth Inhibition at 100 μM BEL7402
In this section we review reported inhibition at 100 µM values for a set of compounds.
Readout kind: inhibition at 100 µM (%)

COc1cc(-n2cc(/C=C3\CC4C5CC=C6CC(O)CCC6(C)C5CCC4(C)C3=O)nn2)cc(OC)c1OC (stereo not drawn)    51.2
CC12CCC3C(CC=C4CC(O)CCC43C)C1C/C(=C\c1cn(-c3cccc(F)c3)nn1)C2=O (stereo not drawn)    66.7
CC12CCC3C(CC=C4CC(O)CCC43C)C1C/C(=C\c1cn(-c3cccc(Cl)c3)nn1)C2=O (stereo not drawn)    36.5

###

Test system: HepG-2
Experiment: MTT antiproliferative assay, HepG-2
Assay type: cell-based, human
Conditions: 100 μM, 48 h, MTT
Readout kind: % Growth Inhibition at 100 μM HepG-2 (%)

CC12CCC3C(CC=C4CC(O)CCC43C)C1C/C(=C\c1cn(-c3cccc(Br)c3)nn1)C2=O (stereo not shown)    10.8
CC12CCC3C(CC=C4CC(O)CCC43C)C1C/C(=C\c1cn(-c3ccc(C(F)(F)F)cc3)nn1)C2=O (stereo not shown)    48.3
CC12CCC3C(CC=C4CC(O)CCC43C)C1C/C(=C\c1cn(-c3ccc(Br)cc3)nn1)C2=O (stereo not shown)    66.4
COc1ccc(-n2cc(/C=C3\CC4C5CC=C6CC(O)CCC6(C)C5CCC4(C)C3=O)nn2)cc1 (stereo not shown)    42.3
